Test system: TTR
Test: TTR editing in primary human hepatocytes transfected with Spy Cas9 protein and sgRNAs (Table 12)
Format: cell-based
Conditions: primary human hepatocytes transfected with Spy Cas9 protein (RNP) and sgRNAs
Strand notation (5' to 3'): a small letter for the sugar, then the base; units joined by * are phosphorothioate-linked, units joined directly phosphodiester-linked; [ ] holds rarer units or linkages, { } end groups; capitals alone tell only the bases. m = 2'-O-methyl; r = 2'-OH (RNA)
readoutLabel: Avg % Deletion (%)
Give the number; % is assumed, so skip it.

Sample answers from the record:
| molecule | unitOfMeasurement | Avg % Deletion |
| --- | --- | --- |
| G000497: TTR sgRNA modified sequence, Human, SEQ ID No. 104; guide sequence of CR003335 (nucleic acid) guide: mC*mU*mG*rCrUrCrCrUrCrCrUrCrUrGrCrCrUrUrGrCrGrUrUrUrUrArGrAmGmCmUmAmGmAmAmAmUmAmGmCrArArGrUrUrArArArArUrArArGrGrCrUrArGrUrCrCrGrUrUrArUrCrAmAmCmUmUmGmAmAmAmAmAmGmUmGmGmCmAmCmCmGmAmGmUmCmGmGmUmGmCmU*mU*mU*mU | % | 8.73 |
| G000494: TTR sgRNA modified sequence, Human, SEQ ID No. 101; guide sequence of CR003360 (nucleic acid) guide: mG*mU*mG*rArGrUrCrUrGrGrArGrArGrCrUrGrCrArUrGrUrUrUrUrArGrAmGmCmUmAmGmAmAmAmUmAmGmCrArArGrUrUrArArArArUrArArGrGrCrUrArGrUrCrCrGrUrUrArUrCrAmAmCmUmUmGmAmAmAmAmAmGmUmGmGmCmAmCmCmGmAmGmUmCmGmGmUmGmCmU*mU*mU*mU | % | 0.77 |

With those in mind, consider the next molecule.
Query G000487: TTR sgRNA modified sequence, Human, SEQ ID No. 94; guide sequence of CR003357 (nucleic acid) guide: mU*mU*mC*rUrUrUrGrGrCrArArCrUrUrArCrCrCrArGrGrUrUrUrUrArGrAmGmCmUmAmGmAmAmAmUmAmGmCrArArGrUrUrArArArArUrArArGrGrCrUrArGrUrCrCrGrUrUrArUrCrAmAmCmUmUmGmAmAmAmAmAmGmUmGmGmCmAmCmCmGmAmGmUmCmGmGmUmGmCmU*mU*mU*mU yields Avg % Deletion of 2.07
